# MEASUREMENT_CONDITIONS: buffer; pH 7.4; 200.0 µM
QUANTITY: solubility kinetic

COMPOUND	ASSAY_RESULT
COC(=O)/C=C1\NCCNC1=O	> 25.5 µg/mL
CC(C)Sc1nc2c([nH]1)c(=N)ncn2Cc1ccccc1	> 44.9 µg/mL
Cn1cccc1C1CCCN1CC(=O)Nc1ccc(C(N)=O)cc1 (centres undefined)	> 49 µg/mL
O=C1CCC(C(=O)OCC(=O)c2ccccc2)N1 (centres undefined)	> 37.1 µg/mL
CN(Cc1ccccc1)C(=O)CN1C(=O)NC2(CCCC2)C1=O	> 47.3 µg/mL
Cc1cc(S(=O)(=O)N2CCN(C(=O)c3ccco3)CC2)ccc1F	> 52.9 µg/mL
Cc1ccc(N2C(=O)C3C=NNC3C2=O)cc1 (centres undefined)	> 34.4 µg/mL
Cc1nc(C(=O)N2CCCC(C(=O)c3ccc(Cl)cc3)C2)cs1 (centres undefined)	> 52.3 µg/mL
CSc1ccc(CNC(C)(C)CO)cc1.Cl	> 39.3 µg/mL
OC(c1ccccc1)(c1ccc(Cl)cc1)C1CN2CCC1CC2 (centres undefined)	> 49.2 µg/mL
Cn1c(=NC(=O)COc2ccccc2)sc2cccc(F)c21	< 0.3 µg/mL
COc1ccc(Nc2nc(OC)nc(OC)n2)cc1	> 39.3 µg/mL
S=C(Nc1ccc(Cl)cc1)Nc1ccc2c(c1)OCCO2	8.9 µg/mL
O=C(Cn1ccc([N+](=O)[O-])n1)NCCc1c[nH]c2ccccc12	> 47 µg/mL
Cc1cc2oc(C(=O)Nc3nonc3C)c(C)c2cc1Cl	< 0.2 µg/mL
NS(=O)(=O)c1ccc(NC(=S)NC(=O)C2CCCCC2)cc1	> 51.2 µg/mL
Nc1nc(CSc2ccc(Cl)cc2)nc(N2CCCCC2)n1	5.6 µg/mL
Cc1cccc(NC(=S)N2CCCC2)c1	> 33 µg/mL
CN(C)S(=O)(=O)c1cccc(C(=O)Nc2ccccc2C(=O)NC2CC2)c1	47 µg/mL

====

# MEASUREMENT_CONDITIONS: buffer; pH 7.4; 200.0 µM

COMPOUND	solubility kinetic
O=C(CNC(=O)C1CC1)Nc1ccc(F)c(F)c1F	> 40.8 µg/mL
O=C(COC(=O)CNC(=O)c1ccccc1F)NC1CC1	> 44.1 µg/mL
COC(=O)c1cn(CC(=O)Nc2ccc(F)cc2)c2ccccc12	< 0.3 µg/mL
CSc1cc(-c2ccncc2)nc(-c2ccc(Cl)cc2)c1	< 0.3 µg/mL
CC(=O)N(CCOc1ccccc1)CCOc1ccccc1	> 44.9 µg/mL
CCc1nnc(NC(=O)CN2CCN(S(C)(=O)=O)CC2)s1	> 50 µg/mL
CC(=O)N1NC(=Nc2ccccc2)SC1(C)C	> 37.4 µg/mL
CS(=O)(=O)c1ccc([C@@H](O)[C@@H](CO)NC(=O)C(Cl)Cl)cc1	> 53.4 µg/mL
O=C(N/N=C/c1ccccn1)C(O)c1ccccc1 (configuration not stated)	> 38.3 µg/mL
CCNc1nc(NCC)nc(OCC(=O)O)n1	> 36.2 µg/mL
O=C(CCc1nnc(-c2ccccc2)o1)NC1CCCCC1	> 44.9 µg/mL
COc1ccccc1C(=O)OCc1cc(=O)n2ccsc2n1	> 47.4 µg/mL
CNC(=S)NCc1ccc2[nH]c(C)cc2c1	> 35 µg/mL
Cc1[nH]c2ccccc2c1/C=N/NC(=O)CNC(=O)c1ccco1	> 48.7 µg/mL
Cc1cccc(CC(=O)N2CCN(C(=O)c3ccco3)CC2)c1	> 46.9 µg/mL
COC(=O)CCCSc1nccn1-c1ccccc1	> 41.5 µg/mL
O=C(Nc1ncccn1)C12CC3CC(CC(C3)C1)C2	> 38.6 µg/mL
